Values were extracted from ChEMBL document CHEMBL3045722.

Target: Voltage-dependent L-type calcium channel subunit alpha-1C (Cavia porcellus)
Test: Antagonist activity at Cavia porcellus albino (guinea pig) calcium channel assessed as inhibition of KCl-induced ileal longitudinal smooth muscle contraction
pIC50: −log10 of the molar value.
Criterion: pIC50 meeting or surpassing 8. Met: true (1). Not met: false (0).

Check out these entries, answers already filled in.
compound: CCOC(=O)C1=C(C)NC(C)=C(C(=O)OC(C)C)C1c1cnc(SC)n1Nc1ccccc1 (centres undefined)
label: true (1)
//
compound: COCCOC(=O)C1=C(C)NC(C)=C(C(=O)OCCOC)C1c1cnc(SC)n1Nc1ccccc1
label: false (0)
//
compound: COC(=O)C1=C(C)NC(C)=C(C(=O)OCc2ccccc2)C1c1cnc(SC)n1Nc1ccccc1 (centres undefined)
label: true (1)
//
compound: CSc1ncc(C2C(C(=O)OCC3CCCCC3)=C(C)NC(C)=C2C(=O)OCC2CCCCC2)n1Nc1ccccc1
label: false (0)
//
compound: CSc1ncc(C2C(C(=O)OCCc3ccccc3)=C(C)NC(C)=C2C(=O)OCCc2ccccc2)n1Nc1ccccc1
label: true (1)

Is reported pIC50 greater than or equal to 8 here: COCCOC(=O)C1=C(C)NC(C)=C(C(=O)OC(C)C)C1c1cnc(SC)n1Nc1ccccc1 (centres undefined)
false (0)

Is reported pIC50 greater than or equal to 8 here: CSc1ncc(C2C(C(=O)OC3CCCC3)=C(C)NC(C)=C2C(=O)OC2CCCC2)n1Nc1ccccc1
false (0)

Could you verify whether the entry CCOC(=O)C1=C(C)NC(C)=C(C(=O)OCCOC)C1c1cnc(SC)n1Nc1ccccc1 (centres undefined) shows pIC50 of no less than 8?
true (1)

Hello, I need to know if CSc1ncc(C2C(C(=O)OCC3CCCCC3)=C(C)NC(C)=C2C(=O)OC(C)C)n1Nc1ccccc1 (centres undefined) has measured pIC50 not below 8. Thanks!
false (0)

Please indicate if the recorded pIC50 for CCOC(=O)C1=C(C)NC(C)=C(C(=O)OCc2ccccc2)C1c1cnc(SC)n1Nc1ccccc1 (centres undefined) meets or exceeds 8.
true (1)

Test whether the compound CSc1ncc(C2C(C(=O)OC(C)C)=C(C)NC(C)=C2C(=O)OC(C)C)n1Nc1ccccc1 records pIC50 of 8 or higher.
true (1)

Does pIC50 meet or surpass 8 for CCCOC(=O)C1=C(C)NC(C)=C(C(=O)OC)C1c1cnc(SC)n1Nc1ccccc1 (centres undefined) ?
true (1)

Kindly determine if pIC50 recorded for CCCOC(=O)C1=C(C)NC(C)=C(C(=O)OCCC)C1c1cnc(SC)n1Nc1ccccc1 is above or exactly 8.
true (1)

====

Biological target: Voltage-dependent L-type calcium channel subunit alpha-1C (Cavia porcellus)
Experiment: Antagonist activity at Cavia porcellus albino (guinea pig) calcium channel assessed as inhibition of KCl-induced ileal longitudinal smooth muscle contraction
measurement kind: IC50 (nM)
Answers are plain numbers, in nM.

The examples below pair each entry with its known result.
molecule: CSc1ncc(C2C(C(=O)OC(C)C)=C(C)NC(C)=C2C(=O)OC(C)(C)C)n1Nc1ccccc1 (centres undefined)
assayed system: Voltage-dependent L-type calcium channel subunit alpha-1C (Cavia porcellus)
IC50, nM: 68.2
--
molecule: CCOC(=O)C1=C(C)NC(C)=C(C(=O)OCCCc2ccccc2)C1c1cnc(SC)n1Nc1ccccc1 (centres undefined)
assayed system: Voltage-dependent L-type calcium channel subunit alpha-1C (Cavia porcellus)
IC50, nM: 2.54
--
molecule: CSc1ncc(C2C(C(=O)OCc3ccccc3)=C(C)NC(C)=C2C(=O)OCc2ccccc2)n1Nc1ccccc1
assayed system: Voltage-dependent L-type calcium channel subunit alpha-1C (Cavia porcellus)
IC50, nM: 1.49

--- query ---
Return reported IC50; argument: CSc1ncc(C2C(C(=O)OCCCc3ccccc3)=C(C)NC(C)=C2C(=O)OC(C)C)n1Nc1ccccc1 (centres undefined)
6.22

====

Molecular target: Voltage-dependent L-type calcium channel subunit alpha-1C (Cavia porcellus, UniProt O35505)
Sequence (O35505 whole entry): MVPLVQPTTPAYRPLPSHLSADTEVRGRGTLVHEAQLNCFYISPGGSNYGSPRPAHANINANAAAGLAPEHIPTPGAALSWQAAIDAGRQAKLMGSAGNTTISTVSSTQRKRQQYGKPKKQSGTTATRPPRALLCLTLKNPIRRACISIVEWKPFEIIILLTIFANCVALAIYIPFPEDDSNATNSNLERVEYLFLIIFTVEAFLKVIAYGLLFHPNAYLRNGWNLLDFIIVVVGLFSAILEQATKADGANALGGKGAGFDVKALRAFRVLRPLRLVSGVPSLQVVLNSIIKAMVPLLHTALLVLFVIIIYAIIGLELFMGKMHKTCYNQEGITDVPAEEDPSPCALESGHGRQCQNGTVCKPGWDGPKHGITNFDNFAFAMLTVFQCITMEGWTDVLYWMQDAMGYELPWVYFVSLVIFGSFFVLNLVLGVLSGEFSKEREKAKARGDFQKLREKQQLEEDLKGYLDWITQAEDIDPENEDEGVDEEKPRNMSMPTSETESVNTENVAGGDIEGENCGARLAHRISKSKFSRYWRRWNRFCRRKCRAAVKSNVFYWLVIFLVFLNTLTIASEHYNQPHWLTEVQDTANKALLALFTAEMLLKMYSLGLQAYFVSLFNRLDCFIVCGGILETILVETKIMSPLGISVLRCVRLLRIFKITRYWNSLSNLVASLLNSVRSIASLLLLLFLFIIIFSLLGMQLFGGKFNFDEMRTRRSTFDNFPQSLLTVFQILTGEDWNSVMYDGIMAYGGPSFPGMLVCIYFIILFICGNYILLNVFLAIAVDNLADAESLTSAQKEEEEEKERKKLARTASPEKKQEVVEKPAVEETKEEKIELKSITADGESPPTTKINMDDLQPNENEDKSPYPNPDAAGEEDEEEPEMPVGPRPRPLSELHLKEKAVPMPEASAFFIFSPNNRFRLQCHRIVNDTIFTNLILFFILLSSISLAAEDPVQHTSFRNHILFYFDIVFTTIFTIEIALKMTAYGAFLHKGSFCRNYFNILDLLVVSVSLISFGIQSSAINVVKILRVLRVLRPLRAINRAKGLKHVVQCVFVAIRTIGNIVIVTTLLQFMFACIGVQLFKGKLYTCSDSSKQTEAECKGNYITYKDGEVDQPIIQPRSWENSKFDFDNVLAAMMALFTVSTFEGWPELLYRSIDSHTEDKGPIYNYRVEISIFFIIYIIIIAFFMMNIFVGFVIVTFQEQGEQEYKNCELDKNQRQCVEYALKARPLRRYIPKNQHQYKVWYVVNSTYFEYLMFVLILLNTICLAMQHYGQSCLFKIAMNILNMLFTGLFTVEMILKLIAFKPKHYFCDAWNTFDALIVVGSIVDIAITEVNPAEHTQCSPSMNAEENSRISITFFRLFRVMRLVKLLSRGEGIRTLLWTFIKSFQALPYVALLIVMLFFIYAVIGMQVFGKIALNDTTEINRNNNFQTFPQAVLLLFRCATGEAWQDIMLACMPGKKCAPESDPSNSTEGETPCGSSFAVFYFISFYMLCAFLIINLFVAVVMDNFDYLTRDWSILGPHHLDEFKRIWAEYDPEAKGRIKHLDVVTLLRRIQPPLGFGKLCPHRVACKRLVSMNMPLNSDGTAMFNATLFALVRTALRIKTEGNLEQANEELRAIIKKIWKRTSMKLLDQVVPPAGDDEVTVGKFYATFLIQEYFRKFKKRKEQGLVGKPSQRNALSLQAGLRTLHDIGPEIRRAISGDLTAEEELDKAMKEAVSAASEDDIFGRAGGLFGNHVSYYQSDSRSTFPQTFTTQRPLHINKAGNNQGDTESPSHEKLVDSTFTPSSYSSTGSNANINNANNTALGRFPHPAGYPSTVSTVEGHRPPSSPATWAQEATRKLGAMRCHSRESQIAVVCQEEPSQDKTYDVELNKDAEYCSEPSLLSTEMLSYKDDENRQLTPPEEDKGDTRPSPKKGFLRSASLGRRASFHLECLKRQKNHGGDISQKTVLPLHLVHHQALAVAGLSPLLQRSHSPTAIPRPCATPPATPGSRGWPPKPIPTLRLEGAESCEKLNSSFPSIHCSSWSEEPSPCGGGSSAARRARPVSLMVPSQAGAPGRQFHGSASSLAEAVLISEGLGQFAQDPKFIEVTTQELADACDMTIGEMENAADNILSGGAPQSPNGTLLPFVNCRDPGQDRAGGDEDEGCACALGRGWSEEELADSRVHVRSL
Assay: Antagonist activity at Cavia porcellus albino (guinea pig) calcium channel assessed as inhibition of KCl-induced ileal longitudinal smooth muscle contraction
Exercise: state measured pIC50 for each of the compounds provided.
One number for each entry, as −log10 of the molar value.

Please give pIC50, item by item, for the list that follows.
1. CSc1ncc(C2C(C(=O)OCC(C)C)=C(C)NC(C)=C2C(=O)OCC(C)C)n1Nc1ccccc1
2. COC(=O)C1=C(C)NC(C)=C(C(=O)OCCCc2ccccc2)C1c1cnc(SC)n1Nc1ccccc1 (stereo unspecified)
3. CSc1ncc(C2C(C(=O)OCCCc3ccccc3)=C(C)NC(C)=C2C(=O)OCCCc2ccccc2)n1Nc1ccccc1

1. 8.17
2. 8.52
3. 8.50

====

Target: Voltage-dependent L-type calcium channel subunit alpha-1C (Cavia porcellus, UniProt O35505)
Assay: Antagonist activity at Cavia porcellus albino (guinea pig) calcium channel assessed as inhibition of KCl-induced ileal longitudinal smooth muscle contraction
The threshold is 4 nM. Values of IC50 beneath it are tagged T; values meeting or exceeding it are tagged F.

Consider the following illustrative entries.
compound: CCOC(=O)C1=C(C)NC(C)=C(C(=O)OC)C1c1cnc(SC)n1Nc1ccccc1 (stereo not drawn)
label: T
//
compound: CSc1ncc(C2C(C(=O)OC3CCCCC3)=C(C)NC(C)=C2C(=O)OC2CCCCC2)n1Nc1ccccc1
label: F

For this compound, is IC50 lower than 4 nM? CCOC(=O)C1=C(C)NC(C)=C(C(=O)OCC)C1c1cnc(SC)n1Nc1ccccc1
T

Strictly below 4 nM in IC50? COC(=O)C1=C(C)NC(C)=C(C(=O)OC(C)C)C1c1cnc(SC)n1Nc1ccccc1 (stereo not drawn)
F

Does this compound meet the criterion IC50 < 4 nM? COC(=O)C1=C(C)NC(C)=C(C(=O)OC)C1c1cnc(SC)n1Nc1ccccc1
T

IC50 strictly < 4 nM for this compound? CSc1ncc(C2C(C(=O)OCc3ccccc3)=C(C)NC(C)=C2C(=O)OC(C)C)n1Nc1ccccc1 (stereo not drawn)
F

Is IC50 of CSc1ncc(C2C(C(=O)OC(C)(C)C)=C(C)NC(C)=C2C(=O)OC(C)(C)C)n1Nc1ccccc1 strictly below 4 nM?
F

Lab note: confirm whether the reported IC50 for this compound is below 4 nM, equality not counting. compound: COCCOC(=O)C1=C(C)NC(C)=C(C(=O)OC)C1c1cnc(SC)n1Nc1ccccc1 (stereo not drawn)
F
